The entries below are paired with their reported Ratio IC50.
# Species: Homo sapiens
# PROTOCOL NOTES: Selectivity index, ratio of IC50 for PARP-2 (unknown origin) to IC50 for PARP-1 (unknown origin)
QUANTITY NAME: Ratio IC50

1. CC(C)(C)C1NCCc2cc(-c3ccc4c(Cl)cc(C(N)=O)n4n3)sc21 (stereo unspecified) = 0.97
2. CCN(CC)Cc1ccc(-c2ccc3c(Cl)cc(C(N)=O)n3n2)cc1 = 5.1
3. NC(=O)c1cc(Cl)c2ccc(-c3ccc(C(=O)N4CCN(C(=O)C5CC5)CC4)cc3F)nn12 = 10.7
4. COC1CCN(C(=O)c2ccc(-c3ccc4c(Cl)cc(C(N)=O)n4n3)c(F)c2)CC1 = 8.9
5. NC(=O)c1cc(Cl)c2ccc(-c3ccc(CN4CCNCC4)cc3)nn12 = 3.7
6. NC(=O)c1cc(Cl)c2ccc(-c3ccc(CN4CCN(C5CC5)CC4)cc3)nn12 = 0.92
7. COC1CCN(C(=O)c2ccc(-c3ccc4c(Cl)cc(C(N)=O)n4n3)c(F)c2)C1 (stereo unspecified) = 2.4
8. NC(=O)c1cc(Cl)c2ccc(-c3ccc(C(=O)N4CCN(C(=O)C5CC5)CC4)cc3)nn12 = 2.5
9. CN1CCc2sc(-c3ccc4c(Cl)cc(C(N)=O)n4n3)cc2C1 = 2.3
10. CC(C)N1CCN(Cc2ccc(-c3ccc4c(Cl)cc(C(N)=O)n4n3)cc2)CC1 = 3.9
11. NC(=O)c1cc(Cl)c2ccc(-c3ccc(F)c(C(=O)N4CCN(C(=O)C5CC5)CC4)c3)nn12 = 11.6
12. NC(=O)c1cc(Cl)c2ccc(-c3ccc(C(=O)N4CCNCC4)cc3)nn12 = 3
13. CC(C)CC(=O)N1CCN(C(=O)c2ccc(-c3ccc4c(Cl)cc(C(N)=O)n4n3)cc2)CC1 = 2
14. CNCc1ccc(-c2ccc3c(Cl)cc(C(N)=O)n3n2)cc1 = 4.5
15. CN1CCc2cc(-c3ccc4c(Cl)cc(C(N)=O)n4n3)sc2C1 = 2.7
16. CN(C)C1CCN(Cc2ccc(-c3ccc4c(Cl)cc(C(N)=O)n4n3)cc2)CC1 = 1.4
17. CN(C)Cc1ccc(-c2ccc3c(Cl)cc(C(N)=O)n3n2)cc1 = 7.5
18. COC1CCN(C(=O)c2ccc(-c3ccc4c(Cl)cc(C(N)=O)n4n3)cc2)C1 (stereo unspecified) = 4.74
19. NC(=O)c1cc(Cl)c2ccc(-c3ccc(CN4CCN(c5ccc(C(F)(F)F)cc5)CC4)cc3)nn12 = 0.13
20. NC(=O)c1cc(Cl)c2ccc(-c3ccc(CN4CCCC4)cc3)nn12 = 2.6
21. COC1CCN(C(=O)c2ccc(-c3ccc4c(Cl)cc(C(N)=O)n4n3)cc2)CC1 = 1.28

====

pIC50: −log10 of the molar value.
Quick record: pIC50, Poly [ADP-ribose] polymerase 2 (Homo sapiens).
QUANTITY NAME: pIC50

1. CC(C)N1CCN(Cc2ccc(-c3ccc4c(Cl)cc(C(N)=O)n4n3)cc2)CC1 = 5.84
2. NC(=O)c1cc(Cl)c2ccc(-c3ccc(CN4CCN(c5ccc(C(F)(F)F)cc5)CC4)cc3)nn12 = 6.35
3. NC(=O)c1cc(Cl)c2ccc(-c3ccc(C(=O)N4CCN(C(=O)C5CC5)CC4)cc3)nn12 = 5.96
